Source: patent US20060069132A1

Overview of reported Bermudagrass plant response rating across a group of compounds:
Tested on: bermudagrass
Assay: Test C pre-/postemergence herbicide test
Format: in vivo, Cynodon dactylon
Settings: Preemergence, 500 g ai/ha; scale 0 to 100, 0 no effect, 100 complete control

{"columns": ["compound", "Bermudagrass plant response rating"],
 "data": [
  ["C#CCn1nc(C(C)(C)C)cc1C(=O)Nc1cccc(C(=O)NCC)c1", 10],
  ["CCc1nn(C(C)(C)C)cc1C(=O)Nc1cc(C(=O)N(C)C)ccn1", 100],
  ["CCNC(=O)c1cccc(NC(=O)c2sc(C(C)(C)C)nc2CC)c1", 100],
  ["CCN(C)C(=O)c1ccc(F)c(NC(=O)C2CC(C(C)(C)C)=NN2CC)c1 (racemic)", 100],
  ["CCc1nn(C(C)(C)C)cc1C(=O)Nc1cc(C(=O)N(CC)CC)ccc1F", 100]
]}

###

System: Surinam grass
Test: Test C pre-/postemergence herbicide test
Assay type: in vivo, Urochloa decumbens
Conditions: 250 g ai/ha; scale 0-100; preemergence
readout: Plant response rating, Surinam Grass

{"columns": ["smiles_notation", "experimental_result"],
 "data": [
  ["CCn1nc(C(C)(C)C)cc1C(=O)Nc1cccc(OC(F)F)c1", 10],
  ["CCn1nc(C(C)(C)C)cc1C(=O)Nc1cc(C(=S)N(C)C)ccc1F", 100],
  ["CCNC(=O)c1cccc(NC(=O)c2sc(C(C)(C)C)nc2CC)n1", 20],
  ["CCNC(=O)c1cccc(NC(=O)c2sc(C(C)(C)C)nc2CC)c1", 10]
]}

###

Readings of Plant response rating, Surinam Grass for the listed compounds
System: Surinam grass
Assay: Test C pre-/postemergence herbicide test
Assay type: in vivo, Urochloa decumbens
Conditions: 62 g ai/ha; preemergence; scale 0 to 100
readout: Plant response rating, Surinam Grass

{"columns": ["smiles_notation", "readout", "experimental_result"],
 "data": [
  ["CCn1nc(C(C)(C)C)cc1C(=S)Nc1cc(C(=S)N(C)C)ccc1F", "Plant response rating, Surinam Grass", 50],
  ["C=CCNC(=O)c1cccc(NC(=O)c2sc(C(C)(C)C)nc2CC)c1", "Plant response rating, Surinam Grass", 0],
  ["CCn1nc(C(C)(C)C)cc1C(=O)Nc1cccc(OC(F)F)c1", "Plant response rating, Surinam Grass", 5],
  ["CCn1nc(C(C)(C)C)cc1C(=O)Nc1cc(C(=S)N(C)C)ccn1", "Plant response rating, Surinam Grass", 55]
]}

###

Measured Plant response rating, Crabgrass, Large, listed per entry for reference.
System: large crabgrass
Test: Test B pre-/postemergence herbicide test
Format: in vivo, Digitaria sanguinalis
Conditions: preemergence, 125 g ai/ha; 0 to 100 scale, 0 is no effect, 100 is complete control

{"columns": ["compound", "target_or_system", "Plant response rating, Crabgrass, Large"],
 "data": [
  ["CCON=C(C)c1cccc(NC(=O)c2cc(C(C)(C)C)nn2C)c1", "large crabgrass", 0],
  ["CCn1nc(C(C)(C)C)cc1C(=O)Nc1cccc([S+]([O-])C(F)(F)F)c1 (stereo not shown)", "large crabgrass", 50],
  ["C=Cn1nc(C(C)(C)C)cc1C(=O)Nc1cccc(C(C)=NO)c1", "large crabgrass", 90],
  ["CCOC(=O)c1cccc(NC(=O)c2cc(C(C)(C)C)nn2CC)c1C", "large crabgrass", 90]
]}

###

Recorded measurements of Foxtail, Giant plant response rating, one per entry
System: giant foxtail
Test: Test B pre-/postemergence herbicide test
Format: in vivo, Setaria faberi
Settings: 125 g ai/ha; visual rating, scale 0 (no effect) to 100 (complete control); postemergence

{"columns": ["molecule", "Foxtail, Giant plant response rating"],
 "data": [
  ["CCOC(=O)c1ccc(F)c(NC(=O)C2CN(C(C)(C)C)N=C2CC)c1 (racemic)", 20],
  ["CCN(C)C(=O)c1ccc(F)c(NC(=O)C2CC(C(C)(C)C)=NN2CC)c1 (racemic)", 20],
  ["CCNC(=O)c1ccc(F)c(NC(=O)c2cn(C(C)(C)C)nc2C)c1", 0],
  ["CCNC(=O)c1ccc(F)c(NC(=O)c2nn(C(C)(C)C)nc2C)c1", 0]
]}

###

Test system: barnyardgrass
Experiment: Test C flooded paddy test
Type: in vivo, Echinochloa crus-galli
Details: 500 g ai/ha, visual rating after 12 to 14 days, scale 0 to 100 (0 no effect, 100 complete control)
# key: entry, value: Plant response rating, Barnyardgrass
readout: Plant response rating, Barnyardgrass

{"columns": ["compound", "readout", "experimental_result"],
 "data": [
  ["CCOC(=O)c1cncc(NC(=O)c2cc(C(C)(C)C)nn2CC)c1 [Compound 255]", "Plant response rating, Barnyardgrass", 35],
  ["CCc1nn(C(C)C)nc1C(=S)Nc1cccc(C(=S)N(C)C)c1 [Compound 410]", "Plant response rating, Barnyardgrass", 65],
  ["CCn1nc(C(C)(C)C)cc1C(=S)Nc1cc(C(=S)N(C)C)ccc1F [Compound 305]", "Plant response rating, Barnyardgrass", 100],
  ["CCn1nc(C(C)(C)C)cc1C(=O)Nc1cccc(SC)c1 [Compound 131]", "Plant response rating, Barnyardgrass", 30],
  ["Cc1nn(C(C)C)nc1C(=O)Nc1cccc(C(=O)N(C)C)c1 [Compound 404]", "Plant response rating, Barnyardgrass", 30]
]}

###

System: woolly cupgrass
Assay: Test C pre-/postemergence herbicide test
Type: in vivo, Eriochloa villosa
Conditions: 125 g ai/ha; scale 0 (no effect) to 100 (complete control); visual, 12 to 14 days; preemergence
readout: Plant response rating, Cupgrass, Woolly

{"columns": ["compound", "experimental_result"],
 "data": [
  ["CCNC(=O)c1cccc(NC(=O)c2sc(C(C)(C)C)nc2C)c1 [Compound 198]", 5],
  ["CCn1nc(C(C)(C)C)cc1C(=O)Nc1cccc(OC(F)F)c1 [Compound 332]", 0],
  ["C=CCNC(=O)c1cccc(NC(=O)c2sc(C(C)(C)C)nc2CC)c1 [Compound 207]", 0],
  ["CCn1nc(C(C)(C)C)cc1C(=O)Nc1cccc(SC(F)(F)F)c1 [Compound 130]", 10],
  ["CCc1nn(C(C)(C)C)cc1C(=O)Nc1cc(C(=O)N(CC)CC)ccc1F [Compound 223]", 10],
  ["C#CCNC(=O)c1cccc(NC(=O)c2cc(C(C)(C)C)nn2CC)c1 [Compound 47]", 10],
  ["C=Cn1nc(C(C)(C)C)cc1C(=O)Nc1cccc(C(C)=NO)c1 [Compound 114]", 10],
  ["CCN(C)C(=O)c1cccc(NC(=O)c2cc(C(C)(C)C)nn2CC)c1 [Compound 48]", 0],
  ["CCn1nc(C(C)(C)C)cc1C(=O)Nc1cc(C(=S)N(C)C)ccc1F [Compound 294]", 75],
  ["CCc1nn(C(C)(C)C)cc1C(=O)Nc1cc(C(=O)N(C)C)ccn1 [Compound 293]", 70]
]}

###

Below, each entry is listed alongside its reported Plant response rating, Pigweed.
Tested on: redroot pigweed
Assay: Test A pre-/postemergence herbicide test
Format: in vivo, Amaranthus retroflexus
Conditions: Postemergence, 2000 g ai/ha; 0 to 100 scale, 0 no effect, 100 complete control

{"columns": ["molecule", "target_or_system", "Plant response rating, Pigweed"],
 "data": [
  ["CCn1nc(C(C)(C)C)cc1C(=O)Nc1cc(C(=O)N(C)C)c(F)cc1F [Compound 270]", "redroot pigweed", 0],
  ["CCc1nn(C(C)(C)C)cc1C(=O)Nc1cc(C(=O)N(CC)CC)ccc1F [Compound 223]", "redroot pigweed", 55],
  ["CC(=NO)c1cc(NC(=O)c2cc(C(C)(C)C)nn2C)ccc1F [Compound 109]", "redroot pigweed", 100],
  ["CCc1nc(C(C)(C)C)sc1C(=O)Nc1cccc(C(=O)NCC(F)(F)F)c1 [Compound 206]", "redroot pigweed", 20],
  ["C=CCNC(=O)c1cccc(NC(=O)c2sc(C(C)(C)C)nc2CC)c1 [Compound 207]", "redroot pigweed", 45]
]}

###

Test system: morningglory
Assay: Test A pre-/postemergence herbicide test
Assay type: in vivo, Ipomoea spp.
Conditions: Postemergence, 500 g ai/ha; 0 to 100 scale, 0 no effect, 100 complete control
readout: Morningglory plant response rating

{"columns": ["compound", "target_or_system", "readout", "experimental_result"],
 "data": [
  ["C=CCN(C)C(=O)c1cccc(NC(=O)c2cc(C(C)(C)C)nn2CC)c1 [Compound 285]", "morningglory", "Morningglory plant response rating", 40],
  ["CCCOC(=O)c1cccc(NC(=O)c2cc(C(C)(C)C)nn2CC)c1C [Compound 90]", "morningglory", "Morningglory plant response rating", 10],
  ["CCc1nn(C2CCCC2)nc1C(=O)Nc1cccc(C(=O)N2CC=CC2)c1 [Compound 354]", "morningglory", "Morningglory plant response rating", 20],
  ["CCc1nn(C(C)(C)C)cc1C(=O)Nc1cc(C(=O)N(CC)CC)ccc1F [Compound 223]", "morningglory", "Morningglory plant response rating", 50],
  ["CCn1nc(C(C)(C)C)cc1C(=O)Nc1cccc(SC(F)(F)F)c1 [Compound 130]", "morningglory", "Morningglory plant response rating", 20]
]}
